Values compiled from patent US9868746B2.

Biological target: mAChR M4 (Homo sapiens)
Construct: expressed in transfected cells; host or cells: CHO-K1 cells stably transfected with M4 cDNA and chimeric G-protein Gqi5
Assay: mAChR M4 cell-based functional assay (calcium mobilization, potentiation of EC20 acetylcholine response)
Settings: % ACh maximum at 30 μM
Checkbox rule: Emax at 30 µM lower than 60% = True; Emax at 30 µM not lower than 60% = False.

Example cases with answers are listed next.
compound: Cc1nnc2sc(C(=O)NCc3ccc(N4CCCC4=O)cc3)c(N)c2c1C [Example B238]
categoryLabel: False
//
compound: COc1ccccc1N1CCC(NC(=O)c2sc3nnc(C)c(C)c3c2N)C1 (stereo not shown) [Example B271]
categoryLabel: False
//
compound: Cc1nnc2sc(C(=O)NCc3ccc4c(c3)OCCO4)c(N)c2c1C [Example B29]
categoryLabel: False
//
compound: Cc1nnc2sc(C(=O)N3CC(NS(C)(=O)=O)C3)c(N)c2c1C [Example B172]
categoryLabel: True
//
compound: Cc1nnc2sc(C(=O)NC3CCN(c4cccnc4)C3)c(N)c2c1C (stereo not shown) [Example B261]
categoryLabel: True

q: Emax at 30 µM under 60%? Item: Cc1nnc2sc(C(=O)NC3CCOC3)c(N)c2c1C (stereo not shown) [Example B35]
a: False

q: Confirm or reject: Emax at 30 µM of Cc1nnc2sc(C(=O)NCc3ccc(C(F)F)cc3)c(N)c2c1C [Example B260] lies strictly below 60%
a: False

q: In plain terms, does Cc1nnc2sc(C(=O)NCc3ccc(-c4ccc(F)nc4F)cc3)c(N)c2c1C [Example B495] come in under 60% for Emax at 30 µM?
a: False

q: Hi there! Is Emax at 30 µM for Cc1nnc2sc(C(=O)NCc3ccc(OCC(F)F)cc3)c(N)c2c1C [Example B176] below 60%, do you know?
a: False

q: Problem: For the compound CS(=O)(=O)c1ccc(CNC(=O)c2sc3nnccc3c2N)cc1 [Example B20] , is Emax at 30 µM under 60%?
a: True

q: Given Cc1nnc2sc(C(=O)NCc3ccc(N(C)C)cc3)c(N)c2c1C [Example B449] , is recorded Emax at 30 µM strictly lower than 60%?
a: False

====

Target: mAChR M4 (Homo sapiens)
Construct: expressed in transfected cells; host or cells: CHO-K1 cells stably transfected with M4 cDNA and chimeric G-protein Gqi5
Assay: mAChR M4 cell-based functional assay (calcium mobilization, potentiation of EC20 acetylcholine response)
Details: % ACh maximum at 30 μM
measurementLabel: Emax at 30 µM (%)
Value expressed in %; do not type the unit.

The examples below pair each entry with its known result.
molecule: CCCOC(=O)N1CCC(NC(=O)c2sc3nnc(C)c(C)c3c2N)C1 (centres unmarked)
assayTarget: mAChR M4 (Homo sapiens)
measurementUnits: %
numericValue: 77

molecule: Cc1nnc2sc(C(=O)NCCNS(=O)(=O)c3ccccc3)c(N)c2c1C
assayTarget: mAChR M4 (Homo sapiens)
measurementUnits: %
numericValue: 52

molecule: COc1cccc(S(=O)(=O)N2CC(NC(=O)c3sc4nnc(C)c(C)c4c3N)C2)c1
assayTarget: mAChR M4 (Homo sapiens)
measurementUnits: %
numericValue: 70

q: Form field: Emax at 30 µM recorded for Cc1ccc(S(=O)(=O)NC2CCN(C(=O)c3sc4nnc(C)c(C)c4c3N)C2)s1 (centres unmarked) with mAChR M4 (Homo sapiens) (enter value)
a: 62

q: # returns recorded Emax at 30 µM (system: mAChR M4 (Homo sapiens)) for Cc1nnc2sc(C(=O)NCc3ccc(C(F)(F)F)nc3)c(N)c2c1C
a: 69

====

Target: mAChR M4 (Homo sapiens, UniProt P08173)
Construct: expressed in transfected cells; host or cells: CHO-K1 cells stably transfected with M4 cDNA and chimeric G-protein Gqi5
Test: mAChR M4 cell-based functional assay (calcium mobilization, potentiation of EC20 acetylcholine response)
Settings: mAChR M4 cell-based functional assay; >10,000 estimated for low potency compounds without plateau; read-out: EC50
The reader will find reported EC50 values listed item by item below.

molecule: CCCOC(=O)NC(CCl)CNC(=O)c1sc2nnc(C)c(C)c2c1N (stereo not drawn) [Example B165]
assayTarget: mAChR M4 (Homo sapiens, UniProt P08173)
EC50: > 10 µM

q: Given Cc1nnc2sc(C(=O)N3CCC[C@H]3C)c(N)c2c1C [Example B382] , state its recorded EC50.
a: > 10 µM

q: Would you kindly share the measured EC50 for Cc1nnc2sc(C(=O)N3CC4CN(S(C)(=O)=O)CC4C3)c(N)c2c1C (stereo not drawn) [Example B277] ?
a: > 10 µM

====

Target: mAChR M4 (Homo sapiens, UniProt P08173)
Construct: expressed in transfected cells; host or cells: CHO-K1 cells stably transfected with M4 cDNA and chimeric G-protein Gqi5
Sequence (P08173 1-479): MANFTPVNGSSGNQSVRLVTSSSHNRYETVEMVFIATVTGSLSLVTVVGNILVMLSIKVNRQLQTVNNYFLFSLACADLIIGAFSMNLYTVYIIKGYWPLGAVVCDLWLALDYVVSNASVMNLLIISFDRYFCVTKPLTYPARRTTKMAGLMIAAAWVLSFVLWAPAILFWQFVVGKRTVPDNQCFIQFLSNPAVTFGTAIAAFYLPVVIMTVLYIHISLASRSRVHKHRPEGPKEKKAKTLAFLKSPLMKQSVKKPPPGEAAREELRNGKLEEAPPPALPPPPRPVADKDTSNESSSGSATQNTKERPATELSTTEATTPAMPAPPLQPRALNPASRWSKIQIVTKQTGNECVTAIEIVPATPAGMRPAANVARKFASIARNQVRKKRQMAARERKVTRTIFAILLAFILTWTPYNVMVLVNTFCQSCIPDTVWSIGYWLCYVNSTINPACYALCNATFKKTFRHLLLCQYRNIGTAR
Experiment: mAChR M4 cell-based functional assay (calcium mobilization, potentiation of EC20 acetylcholine response)
Conditions: mAChR M4 cell-based functional assay; >10,000 estimated for low potency compounds without plateau; read-out: EC50
pEC50: −log10 of the molar value.
measurementLabel: pEC50

Solved entries:
compound: Cc1nnc2sc(C(=O)N3CCC(NS(C)(=O)=O)C3)c(N)c2c1C (stereo not shown)
pEC50: < 5.00

compound: Cc1nnc2sc(C(=O)N3CC(NC(=O)Oc4ccccc4)(c4ccccc4)C3)c(N)c2c1C
pEC50: < 5.00

compound: CS(=O)(=O)c1ccc(CNC(=O)c2sc3nnc(-c4ccccc4)c(-c4ccccc4)c3c2N)cc1
pEC50: < 5.00

Attention now turns to another entry.
q: Give the measured pEC50 of Cc1nnc2sc(C(=O)NCCNS(C)(=O)=O)c(N)c2c1C .
a: < 5.00

====

# pEC50 annotations
Target: mAChR M4 (Homo sapiens)
Construct: expressed in transfected cells; host or cells: CHO-K1 cells stably transfected with M4 cDNA and chimeric G-protein Gqi5
Sequence (P08173 1-479): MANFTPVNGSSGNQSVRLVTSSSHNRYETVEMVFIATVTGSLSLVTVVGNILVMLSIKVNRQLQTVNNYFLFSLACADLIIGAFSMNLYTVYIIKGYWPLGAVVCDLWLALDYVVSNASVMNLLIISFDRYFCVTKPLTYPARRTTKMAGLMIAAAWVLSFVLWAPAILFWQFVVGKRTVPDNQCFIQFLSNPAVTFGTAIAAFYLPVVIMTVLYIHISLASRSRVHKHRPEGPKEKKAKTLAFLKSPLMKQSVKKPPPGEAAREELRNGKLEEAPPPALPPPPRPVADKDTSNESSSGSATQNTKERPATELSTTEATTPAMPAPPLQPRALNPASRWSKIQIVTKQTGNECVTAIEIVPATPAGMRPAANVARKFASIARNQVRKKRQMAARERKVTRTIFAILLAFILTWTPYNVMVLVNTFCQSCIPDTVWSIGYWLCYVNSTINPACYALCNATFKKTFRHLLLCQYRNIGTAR
Experiment: mAChR M4 cell-based functional assay (calcium mobilization, potentiation of EC20 acetylcholine response)
Conditions: mAChR M4 cell-based functional assay; >10,000 estimated for low potency compounds without plateau; read-out: EC50
Scale explanation: pEC50 corresponds to minus log10 of a concentration expressed in moles per litre.

The following molecules have reported results that may help.
molecule: Cc1nnc2sc(C(=O)NC3CN(C(=O)c4ccc5ccccc5c4)C3)c(N)c2c1C [Example B130]
numericValue: 7.01
//
molecule: Cc1ccc(S(=O)(=O)N2CC(NC(=O)c3sc4nnc(C)c(C)c4c3N)C2)s1 [Example B98]
numericValue: 7.20
//
molecule: Cc1nnc2sc(C(=O)NCc3ccc(-c4cccs4)cc3)c(N)c2c1C [Example B460]
numericValue: 7.55
//
molecule: Cc1nnc2sc(C(=O)NCc3ccc(S(=O)(=O)C(F)F)c(Cl)c3)c(N)c2c1C [Example B489]
numericValue: 7.46

q: Tell me reported pEC50 for Cc1nnc2sc(C(=O)N3CC(F)(c4ccc(S(=O)(=O)C(F)F)cc4)C3)c(N)c2c1C [Example B377] , tested with mAChR M4 (Homo sapiens).
a: 7.14

q: Write down the reported pEC50 of Cc1nnc2sc(C(=O)N3CC4(C3)CN(C(=O)C3CCCC3)C4)c(N)c2c1C [Example B402] , test system: mAChR M4 (Homo sapiens).
a: 5.48
